B1: NF2 (merlin) isoform 7, human, full length (507 aa, lacks exons 2-3 = isoform-1 residues 39-121; exon-16 C-terminus), P35240-4 (parent)
chain: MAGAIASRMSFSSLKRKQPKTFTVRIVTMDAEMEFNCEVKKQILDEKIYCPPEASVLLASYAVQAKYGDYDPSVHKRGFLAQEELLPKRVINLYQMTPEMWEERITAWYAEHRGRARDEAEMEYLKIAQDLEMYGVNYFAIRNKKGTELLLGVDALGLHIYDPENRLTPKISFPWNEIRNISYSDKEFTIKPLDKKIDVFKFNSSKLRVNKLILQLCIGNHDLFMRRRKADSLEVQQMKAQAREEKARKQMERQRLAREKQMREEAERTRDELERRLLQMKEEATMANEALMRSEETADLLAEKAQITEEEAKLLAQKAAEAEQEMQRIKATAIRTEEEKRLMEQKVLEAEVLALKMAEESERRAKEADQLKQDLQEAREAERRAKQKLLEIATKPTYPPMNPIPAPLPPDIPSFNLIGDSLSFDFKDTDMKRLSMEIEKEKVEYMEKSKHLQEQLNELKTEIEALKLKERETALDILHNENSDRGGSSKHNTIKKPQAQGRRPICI

variants of: B1; experiment: reverse yeast two-hybrid deep mutational scan (rY2H-seq): NF2 isoform 7 mutant library as bait mated with wild-type prey strains; selection on medium lacking adenine for non-interacting pairs; NextSeq paired-end sequencing; enrichment vs …; conditions: with EMILIN1 (elastin microfibril interfacer 1), Q9Y6C2; yeast diploids after mating (RBait_S3 x RPrey_S3), 30 °C, selection for reporter genes on NB agar; human tyrosine kinase ABL2 co-expressed as the active kinase …; HIGHER = WEAKER BINDING (the opposite of display enrichments): higher = stronger loss of interaction: reverse Y2H selects yeast in which bait and prey do NOT interact (growth without adenine), so a …; hits-only table; scale: rY2H score; numbering: uniprot, sequence starts at 1
Tick 1 (yes) if enrichment is 2 or greater. Tick 0 (no) if enrichment is less than 2.

Example entries begin here.
A381K ... 1 (yes)
S13F ... 0 (no)
V56K ... 1 (yes)
N416R ... 1 (yes)
K460E ... 1 (yes)
D69K ... 0 (no)

Determine whether measured enrichment meets or exceeds 2 for "E337A"
0 (no)

Does "D476K" have a reported enrichment of at least 2?
1 (yes)

State whether the measured enrichment reaches 2, counting equality as reaching it, for "R328T"
1 (yes)

Test whether the variant "P410K" records enrichment of 2 or higher.
0 (no)
